Source: the NIST ThermoML archive (doi:10.1021/je900550v)

# DETAILS: 325.4 K; 101.33 kPa; Liquid; Pulse-echo method
For each record, write down the corresponding speed of sound.
One number for each entry, in m/s.

                                   compound  measured_endpoint  result_value
0  C[NH2+]CCO.O=C[O-] [2-hydroxy-N-methylethanaminium formate]     speed of sound        1762.3
1  CCC(=O)[O-].C[NH2+]CCO [2-hydroxy-N-methylethanaminium propionate]     speed of sound        1609.2
2  CCCCC(=O)[O-].C[NH2+]CCO [2-hydroxy-N-methylethanaminium pentanoate]     speed of sound        1464.7
3  CCCC(=O)[O-].C[NH2+]CCO [N-methyl-2-hydroxyethylammonium butanoate]     speed of sound        1529.2

Data request: Give the measured speed of sound for CC(C)C(=O)[O-].C[NH2+]CCO [2-hydroxy-N-methylethanaminium isobutyrate]
Data returned: 1534.2

###

# DETAILS: 284.65 K; 101.33 kPa; Liquid; Pulse-echo method
MEASURED_ENDPOINT: speed of sound (m/s)
Answers are plain numbers, in m/s.

                                   compound  measured_endpoint  result_value
0  CCCCC(=O)[O-].C[NH2+]CCO [2-hydroxy-N-methylethanaminium pentanoate]     speed of sound        1593.1

Provide reported speed of sound for each item, in the same order as listed.
1. C[NH2+]CCO.O=C[O-] [2-hydroxy-N-methylethanaminium formate]
2. CC(C)C(=O)[O-].C[NH2+]CCO [2-hydroxy-N-methylethanaminium isobutyrate]

Data returned:
1. 1841.8
2. 1650.2

Provide reported speed of sound for each item, in the same order as listed.
1. CCCC(=O)[O-].C[NH2+]CCO [N-methyl-2-hydroxyethylammonium butanoate]
2. CCC(=O)[O-].C[NH2+]CCO [2-hydroxy-N-methylethanaminium propionate]

Data returned:
1: 1659.4; 2: 1731

###

# DETAILS: 296.9 K; 101.33 kPa; Liquid; Pulse-echo method
MEASURED_ENDPOINT: speed of sound (m/s)
Numbers only, in m/s.

In the examples that follow, each entry is paired with its recorded speed of sound.
                                   molecule  measured_endpoint  readout_units  result_value
0  CCCCC(=O)[O-].C[NH2+]CCO [2-hydroxy-N-methylethanaminium pentanoate]     speed of sound            m/s        1552.7
1  CCC(=O)[O-].C[NH2+]CCO [2-hydroxy-N-methylethanaminium propionate]     speed of sound            m/s        1693.7

Provide reported speed of sound for each item, in the same order as listed.
1. C[NH2+]CCO.O=C[O-] [2-hydroxy-N-methylethanaminium formate]
2. CCCC(=O)[O-].C[NH2+]CCO [N-methyl-2-hydroxyethylammonium butanoate]
3. CC(C)C(=O)[O-].C[NH2+]CCO [2-hydroxy-N-methylethanaminium isobutyrate]

Data returned:
[1817.7, 1618.5, 1614.9]

###

For each record, write down the corresponding speed of sound.
# DETAILS: 308.4 K; 101.33 kPa; Liquid; Pulse-echo method
Numbers only, in m/s.

>>> print(df.to_string())
                                   compound  result_value
0  CC(C)C(=O)[O-].C[NH2+]CCO [2-hydroxy-N-methylethanaminium isobutyrate]        1582.4
1  C[NH2+]CCO.O=C[O-] [2-hydroxy-N-methylethanaminium formate]        1795.4
2  CCC(=O)[O-].C[NH2+]CCO [2-hydroxy-N-methylethanaminium propionate]        1659.8
3  CCCCC(=O)[O-].C[NH2+]CCO [2-hydroxy-N-methylethanaminium pentanoate]        1516.8

// next item, speed of sound requested
Data request: Give the measured speed of sound for CCCC(=O)[O-].C[NH2+]CCO [N-methyl-2-hydroxyethylammonium butanoate]
Data returned: 1582.3
